tested on: prickly sida (Sida spinosa L.); experiment: Test Example 2, soil application on the day after sowing; assay type: in vivo; conditions: 21st to 22nd day after application, visual, read-out: Growth inhibition rate (%) Prickly sida
Given measured inhibition at 250 g/ha, output condition met if it is greater than or equal to 90% and condition not met if not.

[[record]]
compound = "CCn1nc(C)c(C(=O)c2ccc(S(C)(=O)=O)c(OCCOC)c2C)c1O"
label = "condition not met"

[[record]]
compound = "CCc1nn(C)c(O)c1C(=O)c1ccc(S(C)(=O)=O)c(OCCOC)c1C"
label = "condition not met"

[[record]]
compound = "CCCn1ncc(C(=O)c2ccc(S(C)(=O)=O)c(OCCOC)c2C)c1OC(C)OC(=O)OCC (stereo not shown)"
label = "condition not met"

[[record]]
compound = "COCCOc1c(S(C)(=O)=O)ccc(C(=O)c2cnn(C(C)C)c2O)c1C"
label = "condition not met"

[[record]]
compound = "COCCOc1c(S(C)(=O)=O)ccc(C(=O)c2c(C)nn(C)c2OC(C)OC(=O)OC)c1C (stereo not shown)"
label = "condition met"

[[record]]
compound = "CCCn1ncc(C(=O)c2ccc(S(C)(=O)=O)c(OCCOC)c2C)c1O"
label = "condition not met"

[[record]]
compound = "COC(=O)OC(C)Oc1c(C(=O)c2ccc(S(C)(=O)=O)c(C(=O)OC)c2C)cnn1C (stereo not shown)"
label = "condition met"

[[record]]
compound = "COCCOc1c(S(C)(=O)=O)ccc(C(=O)c2cnn(C(C)C)c2OC(C)OC(=O)OC)c1C (stereo not shown)"
label = "condition met"

[[record]]
compound = "COCCOc1c(S(C)(=O)=O)ccc(C(=O)c2c(C)nn(C)c2O)c1C"
label = "condition not met"

[[record]]
compound = "COCCOc1c(S(C)(=O)=O)ccc(C(=O)c2c(C)nn(C(C)C)c2O)c1C"
label = "condition not met"

[[record]]
compound = "COCc1c(S(C)(=O)=O)ccc(C(=O)c2cnn(C)c2OC(C)OC(=O)OC)c1C (stereo not shown)"
label = "condition met"

[[record]]
compound = "Cc1c(C(=O)c2cnn(C)c2O)ccc(S(C)(=O)=O)c1OCCC(C)C"
label = "condition met"


----------
test system: rice (Oryza sativa L.); test: Test Example 2, soil application on the day after sowing; format: in vivo; details: 21st to 22nd day after application, visual, read-out: Growth inhibition rate (%) Rice
Given measured inhibition at 250 g/ha, output Satisfied if it is greater than or equal to 20% and Not satisfied if not.

[[record]]
molecule = "COCCOc1c(S(C)(=O)=O)ccc(C(=O)c2c(C)nn(C)c2O)c1C"
label = "Not satisfied"

[[record]]
molecule = "CCn1nc(C)c(C(=O)c2ccc(S(C)(=O)=O)c(OCCOC)c2C)c1O"
label = "Satisfied"

[[record]]
molecule = "CCOCc1c(S(C)(=O)=O)ccc(C(=O)c2cnn(C)c2OC(C)OC(=O)OC)c1C (centres unmarked)"
label = "Satisfied"

[[record]]
molecule = "COCCOc1c(S(C)(=O)=O)ccc(C(=O)c2cnn(C(C)C)c2O)c1C"
label = "Satisfied"

[[record]]
molecule = "COCc1c(S(C)(=O)=O)ccc(C(=O)c2cnn(C)c2OC(C)OC(=O)OC)c1C (centres unmarked)"
label = "Satisfied"

[[record]]
molecule = "CCOC(=O)OC(C)Oc1c(C(=O)c2ccc(S(C)(=O)=O)c(OCCOC(C)C)c2C)cnn1C (centres unmarked)"
label = "Satisfied"

